For each entry below, report its pIC50 value.
Biological target: PI3K α (Homo sapiens, UniProt P42336)
Construct: purchased Upstate
Sequence (P42336 whole entry, one chain of several): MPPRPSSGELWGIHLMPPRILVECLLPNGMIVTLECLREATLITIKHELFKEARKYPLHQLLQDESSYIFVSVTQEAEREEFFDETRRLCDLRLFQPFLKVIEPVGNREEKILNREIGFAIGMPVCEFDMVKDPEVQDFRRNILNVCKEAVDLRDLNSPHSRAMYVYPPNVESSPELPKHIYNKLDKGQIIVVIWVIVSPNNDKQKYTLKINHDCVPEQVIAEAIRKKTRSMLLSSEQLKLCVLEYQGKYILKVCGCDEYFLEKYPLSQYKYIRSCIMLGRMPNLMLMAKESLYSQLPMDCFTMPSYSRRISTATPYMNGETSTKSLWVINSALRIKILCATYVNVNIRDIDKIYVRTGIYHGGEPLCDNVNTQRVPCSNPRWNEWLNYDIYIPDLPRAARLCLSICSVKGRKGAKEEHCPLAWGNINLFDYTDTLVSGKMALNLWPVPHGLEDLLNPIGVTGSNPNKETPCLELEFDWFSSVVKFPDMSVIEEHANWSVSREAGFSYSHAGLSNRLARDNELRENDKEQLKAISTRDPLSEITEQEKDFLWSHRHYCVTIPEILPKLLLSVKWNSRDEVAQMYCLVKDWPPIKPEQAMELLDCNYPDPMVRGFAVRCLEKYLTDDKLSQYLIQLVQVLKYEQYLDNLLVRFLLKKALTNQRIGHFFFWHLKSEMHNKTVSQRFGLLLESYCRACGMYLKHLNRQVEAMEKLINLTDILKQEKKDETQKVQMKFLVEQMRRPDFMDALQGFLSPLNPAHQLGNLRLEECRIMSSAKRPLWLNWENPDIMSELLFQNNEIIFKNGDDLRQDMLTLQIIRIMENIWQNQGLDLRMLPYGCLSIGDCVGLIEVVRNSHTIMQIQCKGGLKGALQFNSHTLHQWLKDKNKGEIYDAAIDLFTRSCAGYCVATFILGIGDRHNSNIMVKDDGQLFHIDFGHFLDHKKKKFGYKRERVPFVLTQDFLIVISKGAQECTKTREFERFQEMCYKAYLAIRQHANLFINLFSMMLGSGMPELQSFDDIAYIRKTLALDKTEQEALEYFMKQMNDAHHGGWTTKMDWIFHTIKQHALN
Assay: PI 3-Kinase HTRF inhibition assay, PI3K α
Type: biochemical
Settings: in vitro; read-out: PI3K α IC50
pIC50: −log10 of the molar value.

Q: Look up pIC50 for this compound: CC1CN(C2CN(c3cnc4ccc(-c5ccc6oc(N)nc6c5)nc4n3)C2)CCO1 (centres unmarked) [Compound 18]
A: > 6.00

Q: Requested read-out: pIC50. Entry: CCN1CCN(C2CN(c3cnc4ccc(-c5ccc6oc(N)nc6c5)nc4n3)C2)CC1 [Compound 76]
A: > 7.00

Q: Look up pIC50 for this compound: CS(=O)(=O)N1CCN(C2CN(c3cnc4ccc(-c5ccc6oc(N)nc6c5)nc4n3)C2)CC1 [Compound 8]
A: > 7.00

Q: Could you share which pIC50 value was measured for Nc1nc2cc(-c3ccc4nc(N5CCOCC5)cnc4n3)ccc2o1 [Compound 7] ?
A: < 5.00

Q: Any idea what pIC50 was measured for C[C@@H](N)C(=O)N1CCN(c2cnc3ccc(-c4ccc5oc(N)nc5c4)nc3c2)CC1 [Compound 39] ?
A: > 7.00

###

Target: PI3K δ (Homo sapiens, UniProt O00329)
Construct: purchased Upstate
Sequence (O00329 whole entry): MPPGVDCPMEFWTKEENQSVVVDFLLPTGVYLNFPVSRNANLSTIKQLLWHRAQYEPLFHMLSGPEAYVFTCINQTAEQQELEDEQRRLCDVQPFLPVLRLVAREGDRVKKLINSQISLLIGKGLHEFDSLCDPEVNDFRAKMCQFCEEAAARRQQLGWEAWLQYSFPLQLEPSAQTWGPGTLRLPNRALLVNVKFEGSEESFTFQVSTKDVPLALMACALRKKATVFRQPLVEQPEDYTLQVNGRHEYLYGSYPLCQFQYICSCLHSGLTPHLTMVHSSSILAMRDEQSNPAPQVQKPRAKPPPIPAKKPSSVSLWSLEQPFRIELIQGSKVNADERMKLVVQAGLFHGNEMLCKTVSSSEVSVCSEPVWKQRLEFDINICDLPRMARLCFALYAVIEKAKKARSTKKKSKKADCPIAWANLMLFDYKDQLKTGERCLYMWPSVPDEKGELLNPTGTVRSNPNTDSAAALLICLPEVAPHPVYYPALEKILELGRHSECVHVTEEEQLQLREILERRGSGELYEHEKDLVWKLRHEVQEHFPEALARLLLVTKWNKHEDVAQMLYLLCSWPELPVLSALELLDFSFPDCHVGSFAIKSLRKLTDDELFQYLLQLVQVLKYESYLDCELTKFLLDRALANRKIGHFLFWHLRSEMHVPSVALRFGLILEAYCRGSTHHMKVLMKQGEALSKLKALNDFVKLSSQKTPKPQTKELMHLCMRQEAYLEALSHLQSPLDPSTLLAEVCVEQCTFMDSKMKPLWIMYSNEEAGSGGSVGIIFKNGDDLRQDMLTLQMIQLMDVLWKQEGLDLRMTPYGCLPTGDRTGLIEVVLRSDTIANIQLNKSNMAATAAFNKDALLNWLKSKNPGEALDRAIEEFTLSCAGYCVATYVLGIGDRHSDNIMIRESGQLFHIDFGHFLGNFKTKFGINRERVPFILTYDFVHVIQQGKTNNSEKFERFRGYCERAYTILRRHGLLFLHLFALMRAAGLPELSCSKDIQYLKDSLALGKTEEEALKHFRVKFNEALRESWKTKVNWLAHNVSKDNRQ
Sequence (P27986 whole entry partner): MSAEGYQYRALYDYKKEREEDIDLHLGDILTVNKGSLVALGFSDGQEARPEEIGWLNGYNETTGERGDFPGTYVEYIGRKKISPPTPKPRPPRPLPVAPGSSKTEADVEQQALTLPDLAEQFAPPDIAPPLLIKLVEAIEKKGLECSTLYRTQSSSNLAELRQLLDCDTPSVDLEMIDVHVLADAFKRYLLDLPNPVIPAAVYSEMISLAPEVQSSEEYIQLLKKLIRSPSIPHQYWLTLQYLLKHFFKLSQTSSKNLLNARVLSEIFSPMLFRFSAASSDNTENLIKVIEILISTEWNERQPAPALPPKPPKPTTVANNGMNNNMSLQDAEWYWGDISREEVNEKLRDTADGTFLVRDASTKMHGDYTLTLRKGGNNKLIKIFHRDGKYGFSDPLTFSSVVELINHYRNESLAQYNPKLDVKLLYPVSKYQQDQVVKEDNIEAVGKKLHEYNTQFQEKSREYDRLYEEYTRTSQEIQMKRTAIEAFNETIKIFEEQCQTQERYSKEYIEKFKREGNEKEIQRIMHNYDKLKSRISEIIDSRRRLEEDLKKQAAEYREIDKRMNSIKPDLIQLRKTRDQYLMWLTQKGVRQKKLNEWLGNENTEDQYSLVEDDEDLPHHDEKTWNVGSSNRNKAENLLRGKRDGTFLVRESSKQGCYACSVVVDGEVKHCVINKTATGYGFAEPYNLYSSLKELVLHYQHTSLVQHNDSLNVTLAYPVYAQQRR
Assay: PI 3-Kinase HTRF inhibition assay, PI3K δ
Assay type: biochemical
Details: in vitro; read-out: PI3K δ IC50
Readout: IC50

Q: Using the record for "C[C@H]1COCCN1C1CN(c2cnc3ccc(-c4ccc5oc(N)nc5c4)nc3n2)C1" , report its IC50.
A: < 10 µM

Q: # get_value(readout='IC50', item= "Nc1nc2cc(-c3ccc4ncc(N5CC(N6CCN(C7CC7)CC6)C5)cc4n3)ccc2o1" )
A: < 10 µM

Q: What does the data say about its IC50? Entry: "CCOC(=O)N1CCN(c2cnc3ccc(-c4ccc5oc(N)nc5c4)nc3c2)CC1"
A: > 10 µM

Q: Bench note: what IC50 did "Nc1nc2cc(-c3ccc4ncc(N5CCOCC5)cc4n3)ccc2o1" show?
A: > 10 µM

Q: // query IC50 value for entry "CCN(CC)c1cnc2ccc(-c3ccc4oc(N)nc4c3)nc2n1"
A: < 10 µM

Q: IC50 for "Nc1nc2cc(-c3ccc4ncc(N5CCOCC5)nc4n3)ccc2o1" ?
A: > 10 µM

Q: I have this compound here, "NCC(=O)N1CCN(c2cnc3ccc(-c4ccc5oc(N)nc5c4)nc3c2)CC1" , and I need its recorded IC50.
A: < 1 µM
